Target: Cathepsin L (Rattus norvegicus, UniProt P07154)
Construct: Thus, a lysosome fraction was obtained
Sequence (P07154 114-334): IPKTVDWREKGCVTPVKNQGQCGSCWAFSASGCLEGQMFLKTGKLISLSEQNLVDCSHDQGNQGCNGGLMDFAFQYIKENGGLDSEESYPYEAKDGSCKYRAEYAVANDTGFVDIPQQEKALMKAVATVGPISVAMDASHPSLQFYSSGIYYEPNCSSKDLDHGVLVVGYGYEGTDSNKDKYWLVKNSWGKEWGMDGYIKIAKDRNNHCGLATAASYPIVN
Assay: Cathepsin L inhibitory action (rat liver lysosome fraction, Z-Phe-Arg-MCA, in presence of CA-074)
Conditions: pH 5.5, 30° C., with 10^-7 M CA-074, read-out: Cathepsin Inhibition (IC50) Cathepsin L
Experimental: Male rat of Wistar strain was killed by exsanguination and a ice-chilled physiological saline was introduced into portal vein for circulation Then, its liver was taken out. Thereafter, the following procedures were performed at 4°C. The liver was minced by scissors. Five grams of minced liver were homogenized in a Potter type Teflon Homogenizer after addition of 9 volumes of 0.25 M sucrose. The homogenate was centrifuged at 800 G for 10 minutes. […]
pIC50: −log10 of the molar value.
reported-endpoint: pIC50

compound: CCC(C)[C@H](NC(=O)[C@H]1O[C@@H]1C(=O)O)[C@H](O)c1ccccc1 (stereo partly shown)
value-reported: 7.24

compound: O=C(O)[C@H]1O[C@@H]1C(=O)N[C@H](COCc1ccccc1)Cc1ccccc1
value-reported: 7.96

compound: CC(C)C[C@H](NC(=O)[C@H]1O[C@@H]1C(=O)O)[C@H](O)c1ccccc1
value-reported: 7.96

compound: CC(C)C[C@H](NC(=O)[C@H]1O[C@@H]1C(=O)O)[C@H](OCc1ccccc1)c1ccccc1
value-reported: 8.48

compound: CC(C)C[C@@H](COCc1ccccc1)NC(=O)[C@H]1O[C@@H]1C(=O)O
value-reported: 8.16

compound: CO[C@H](c1ccccc1)[C@H](CC(C)C)NC(=O)[C@H]1O[C@@H]1C(=O)O
value-reported: 7.74

compound: CC(C)C[C@@H](CO)NC(=O)[C@H]1O[C@@H]1C(=O)O
value-reported: 7.03

---

Target: Cathepsin B (Rattus norvegicus)
Sequence (P00787 80-333): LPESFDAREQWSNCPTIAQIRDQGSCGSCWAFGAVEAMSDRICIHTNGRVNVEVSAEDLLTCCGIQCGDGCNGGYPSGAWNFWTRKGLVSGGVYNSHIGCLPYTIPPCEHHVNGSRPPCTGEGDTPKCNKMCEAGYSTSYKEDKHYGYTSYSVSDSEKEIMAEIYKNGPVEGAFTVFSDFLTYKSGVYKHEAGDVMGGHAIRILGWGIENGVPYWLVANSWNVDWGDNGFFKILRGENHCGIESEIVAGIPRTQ
reported-endpoint: IC50 (nM)

mol: CO[C@H](c1ccccc1)[C@H](CC(C)C)NC(=O)[C@H]1O[C@@H]1C(=O)O
units-text: nM
value-reported: 85

---

Test system: rats grown with low calcium feed (bone resorption)
Experiment: Bone resorption inhibitory activity by decrease of plasma calcium concentration in rats grown with low calcium feed
Format: in vivo, rat
Details: Rattus norvegicus, po; Wistar rats on low calcium feed, 15 mg/kg p.o., 6 hours after administration, vs non-administration group; read-out: Measured Plasma Ca Concentration (Ca decrease rate)
reported-endpoint: change in vivo at 15 mg/kg (%)

molecule: CCOC(=O)[C@H]1O[C@@H]1C(=O)N[C@@H](CC(C)C)[C@H](OC(C)=O)c1ccccc1 [Example 13]
reported-endpoint: change in vivo at 15 mg/kg
value-reported: -14.7
--
molecule: CCOC(=O)[C@H]1O[C@@H]1C(=O)N[C@@H](CC(C)C)[C@H](O)c1ccccc1 [Example 1a]
reported-endpoint: change in vivo at 15 mg/kg
value-reported: -12.5
--
molecule: CCOC(=O)[C@H]1O[C@@H]1C(=O)N[C@@H](CC(C)C)C(=O)c1ccccc1 [Example 7]
reported-endpoint: change in vivo at 15 mg/kg
value-reported: -13.6
--
molecule: CCOC(=O)[C@H]1O[C@@H]1C(=O)N[C@@H](CC(C)C)[C@H](OC)c1ccccc1 [Example 5]
reported-endpoint: change in vivo at 15 mg/kg
value-reported: -20.4
--
molecule: CCOC(=O)[C@H]1O[C@@H]1C(=O)N[C@H](COCc1ccccc1)CC(C)C [Example 17]
reported-endpoint: change in vivo at 15 mg/kg
value-reported: -15.4
--
molecule: CCOC(=O)[C@H]1O[C@@H]1C(=O)N[C@H](C(=O)c1ccccc1)C(C)C [Example 8]
reported-endpoint: change in vivo at 15 mg/kg
value-reported: -15.8
--
molecule: CO[C@H](c1ccccc1)[C@H](CC(C)C)NC(=O)[C@H]1O[C@@H]1C(=O)O [Example 11]
reported-endpoint: change in vivo at 15 mg/kg
value-reported: -17.3
